# System: EKVX NSCLC
# ASSAY PROTOCOL: NCI-60 one-dose screen, 48 h (100 = growth as untreated, 0 = no growth, -100 = all killed)
# CONDITION DESCRIPTION: 10 µM unless noted
About 83,000 compounds went through this panel and 20% of them were active in at least one assay; those are over-represented in the sample as a whole.
As shown below, each of these compounds has a reported growth value.

[
  {
    "COMPOUND": "C[C@H]1OC(=O)/C=C/[C@@H](O)[C@@H](O)CCCCCCCC[C@@H]1O",
    "growth (%)": 99.6
  },
  {
    "COMPOUND": "CCc1nnc(NC(=O)c2ccoc2COc2ccccc2)s1",
    "growth (%)": 58.2
  },
  {
    "COMPOUND": "COc1ccc(C(=O)c2ccc(C)cc2)c(OC)c1OC",
    "growth (%)": 92.7
  },
  {
    "COMPOUND": "Cc1nc([P+](c2ccccc2)(c2ccccc2)c2ccccc2)c(Sc2sc(-c3ccccc3)nc2[P+](c2ccccc2)(c2ccccc2)c2ccccc2)o1",
    "growth (%)": 14.8
  },
  {
    "COMPOUND": "CC(=O)O[C@H]1CC[C@]2(C)[C@H]3CC=C4[C@@H]5[C@H](C)[C@@H](C)CC[C@]5(C(=O)NCCNCCNCCN)CC[C@@]4(C)[C@]3(C)CC[C@H]2C1(C)C",
    "growth (%)": 72.6
  },
  {
    "COMPOUND": "COc1cc(/C=C2\\C(=O)N(CC(O)COc3cc(O)c4c(=O)cc(-c5ccccc5)oc4c3)c3ccccc32)cc(OC)c1O (centres undefined)",
    "growth (%)": 78.8
  },
  {
    "COMPOUND": "COc1ccc(/C=C/C(=O)NCC(C)O)cc1 (centres undefined)",
    "growth (%)": 99.4
  },
  {
    "COMPOUND": "COC1=C(Br)C(=O)C(OC)=C(Br)C1=O",
    "growth (%)": 105
  },
  {
    "COMPOUND": "NCCNc1nc(-c2ccccc2)nc2nc(-c3ccccc3)oc12",
    "growth (%)": 102
  }
]
